Assay: TOX21_p53_BLA_p3_viability: Viability Assessment in the Tox21 HCT-116 p53 Agonism Beta-lactamase Assay, Phase 3 (AID 2283593);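 note: cells exposed to compound for 16 h before reading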
Inconclusive results are not listed. The source made the active and inactive calls. Rule for the calls: active = hit-call score of the fitted dose curve at least 0.9, where 1 is the maximum; inconclusive = response in the unintended direction; inactive = score below 0.9.
Would you mind answering with one of these outcomes? active, inactive

Problem: What classification did `CC(=O)c1ccc2c(c1)CCCC2` end up with in this test?
Result: inactive

Problem: Returns: the outcome recorded for COCC(C)N (stereo unspecified) in this assay.
Result: inactive

Problem: What did the test return for O=C1C(N(CO)C(=O)NCO)N(CO)C(=O)N1CO (stereo unspecified) ?
Result: inactive

Problem: // return assay outcome for `C[C@]12C=CC(=O)C=C1CC[C@@H]1[C@@H]2[C@@H](O)C[C@@]2(C)[C@H]1CC[C@]2(O)C(=O)CO`
Result: inactive

Problem: Any idea what this test logged for `COc1cc(C)ccc1C(C)C` ?
Result: inactive

Problem: // return assay outcome for `O=C(Nc1ccccc1SSc1ccccc1NC(=O)c1ccccc1)c1ccccc1`
Result: inactive

Problem: Lab log entry: `C=C(C)[C@@H]1CCC2=CCC[C@@H](C)[C@]2(C)C1` — outcome as called in the assay?
Result: inactive

Problem: Dear colleague, could you share the recorded outcome for CC1OC1C1CCC2(C)OC2C1 (stereo unspecified) when you have a moment?
Result: inactive

Problem: So what was the verdict on `[Cl][Bi]([Cl])([c]1ccccc1)([c]1ccccc1)[c]1ccccc1` in this test?
Result: active

Problem: Which outcome was entered for the compound `O=CN1CCCCC1` in this test?
Result: inactive

Problem: Could you kindly confirm the outcome this assay logged for `CC(=O)Nc1nnc(S(N)(=O)=O)s1` ?
Result: inactive

Problem: What call does the record list for `N=c1ccn2c(n1)O[C@H]1[C@H](O)[C@@H](CO)O[C@H]12` ?
Result: inactive

Problem: Dear all, I need the recorded test outcome for `CC1=Nc2ccc3ccccc3c2C1(C)C` , thank you.
Result: inactive

Problem: I'd appreciate the recorded outcome for `C=CCOc1c(Br)cc(Br)cc1Br` from this test.
Result: inactive

Problem: Lab log entry: `Cc1cc(O)c(Cl)c(C)c1Cl` — outcome as called in the assay?
Result: active

Problem: Can you look up the reported call for `O=c1[nH]nc(-c2ccc([N+](=O)[O-])o2)o1` for me?
Result: inactive

Problem: Dear colleague, could you share the recorded outcome for `CCCCCCCCCCOS(=O)(=O)O` when you have a moment?
Result: inactive

Problem: Hello, I am checking results. What call was entered for `CCOC(=O)Cc1cccc2ccccc12` ?
Result: inactive

Problem: What was the test verdict on `CC(C)c1ccc2c(c1)CC[C@H]1[C@](C)(CN)CCC[C@]21C` ?
Result: active

Problem: Outcome? `Nc1ccc(N)c(Cl)c1`
Result: inactive

Problem: What call does the record list for `O=C(C=Cc1ccccc1)OCc1ccccc1` ?
Result: inactive

###

Assay: ATG_FoxO_CIS: Attagene CIS-FACTORIAL HepG2 Assay for human Forkhead box O (FoxO) (AID 2282943)
Settings: HepG2 Attagene cis-reporter, FoxO element, mRNA; actives raise or lower the signal
Activity calls are given as the source filed them. Rule for the calls: active = hit-call score of the fitted dose curve at least 0.9, where 1 is the maximum; inactive = score below 0.9.
Choose one outcome from this list and give only that: active, inactive

Problem: For this molecule, state the assay outcome: `C[C@]12CCC(=O)C=C1CC[C@@H]1[C@@H]2C(=O)C[C@@]2(C)[C@H]1CC[C@]2(O)C(=O)CO`
Result: inactive

Problem: Test call for this molecule, please: `C=CCCCCCCCCC(=O)OCCCC`
Result: inactive

Problem: Short answer needed: outcome of this test for CCCCCCC(O)CO (stereo not given) ?
Result: inactive

Problem: Outcome logged for `Cc1ccc(OC(=O)CC(C)C)cc1` in this assay:
Result: inactive

Problem: Answer briefly: the call reported for `Cc1ccc([N+](=O)[O-])cc1S(=O)(=O)O` in this assay.
Result: active

Problem: Each molecule tested received a call. Report the one for `C=C[Si](C)(C)O[Si](C)(C)C=C` .
Result: inactive

Problem: For this molecule, state the assay outcome: `C1CN(SSN2CCOCC2)CCO1`
Result: inactive

Problem: Please indicate how the test categorized OC1OCCOC1O (stereo not given) .
Result: inactive

Problem: Write down the call the test reported for this molecule. Item: `Cc1cc(C)c(C(=O)O)c(C)c1`
Result: inactive

Problem: Test call, this molecule: CC(C)CCCC(C)CC=O (stereo not given)
Result: inactive

Problem: // param item: `O=S(=O)(O)c1cc(S(=O)(=O)O)c2ccc3c(S(=O)(=O)O)cc(S(=O)(=O)O)c4ccc1c2c43` ; yields the recorded call
Result: inactive

Problem: Recorded test call requested for `O=C1CCCN1CCO`
Result: inactive

Problem: Returns: the outcome recorded for `O=c1[nH]c(=O)c2[nH]c(=O)[nH]c2[nH]1` in this assay.
Result: inactive

Problem: Could you please tell me the result logged for `c1c[nH]cn1` in this assay?
Result: inactive

Problem: Please state the recorded outcome for this molecule: `C[Si](C)(CCCN)O[Si](C)(C)CCCN`
Result: inactive

Problem: What outcome does the record of this test show for `O=c1cc[nH]c(=S)[nH]1` ?
Result: inactive

Problem: Dear all, I need the recorded test outcome for `CC(=O)c1ccc2c(c1)CCCC2` , thank you.
Result: inactive

Problem: What did the test return for `CC1(C)S[C@@H]2[C@H](NC(=O)COc3ccccc3)C(=O)N2[C@H]1C(=O)O` ?
Result: inactive

Problem: Test call, this molecule: `Cn1c(=O)[nH]c2ncn(C)c2c1=O`
Result: inactive

Problem: Query: recorded result category for `C1=Cc2ccccc2C1` in this test
Result: inactive

###

Target: Cellular tumor antigen p53 (Homo sapiens)
Assay: TOX21_p53_BLA_p3_ratio: Tox21 HCT-116 p53 Agonism Beta-lactamase Assay, Ratio, Phase 3 (AID 2283596)
Records with an inconclusive call do not appear. Calls of active or inactive are those of the source. The calls were made as follows: active = hit-call score of the fitted dose curve at least 0.9, where 1 is the maximum; inconclusive = response in the unintended direction; inactive = score below 0.9.
Can you answer with just one of these options? active, inactive

Problem: Test call, this molecule: `Nc1ccc(Cl)cc1Cl`
Result: inactive

Problem: Called result for `O=C1OC(=O)c2cc(Oc3ccc4c(c3)C(=O)OC4=O)ccc21`
Result: inactive

Problem: What did this assay record as the result for `CCCC(=O)OCc1ccccc1` ?
Result: inactive

Problem: What was the test verdict on `CC(C)c1ccc2c(c1)CC[C@H]1[C@](C)(CN)CCC[C@]21C` ?
Result: active

Problem: Status in this test for CC(=O)OCC(C)OC(C)=O (stereo not drawn) ?
Result: inactive

Problem: Call for entry `COC(=O)c1cc(Cl)ccc1[N+](=O)[O-]` :
Result: inactive

Problem: Status in this test for `Nc1nc2ccccc2[nH]1` ?
Result: inactive

Problem: Could you please tell me the result logged for `CCCCCCCCCCC=CC#N` in this assay?
Result: inactive

###

Assay: ATG_SREBP_CIS: Attagene CIS-FACTORIAL HepG2 Assay for human Sterol Regulatory Element Binding (SREBP) (AID 2282962)
Settings: HepG2 Attagene cis-factorial SREBP reporter, mRNA; actives raise or lower the signal
Calls of active or inactive are those of the source. How the source made its calls: active means hit-call score of the fitted dose curve at least 0.9, where 1 is the maximum; inactive means score below 0.9.
// allowed return values: true (1) for active, false (0) for inactive

Problem: Recorded test call requested for `COC(F)(F)C(F)(C(F)(F)F)C(F)(F)F`
Result: false (0)

Problem: For `O=c1[nH]c(=O)c2[nH]c(=O)[nH]c2[nH]1` , which call appears in the assay record?
Result: false (0)

Problem: I would be grateful if you could indicate the recorded call for CC(C)=CCCC(C)C=O (stereo unspecified) .
Result: false (0)

Problem: Outcome? `COC=O`
Result: false (0)

Problem: Recorded test call requested for `ON(Cc1ccccc1)Cc1ccccc1`
Result: false (0)

Problem: Tell me the assay call for `CCCc1ccc(OC)cc1` please.
Result: false (0)

Problem: Assay result, entry `CCOc1ccc(N)c([N+](=O)[O-])c1` — outcome?
Result: false (0)

Problem: What was the test verdict on `CCCCCCCCCCCCCCCCCC#N` ?
Result: false (0)

Problem: Query: recorded result category for `CCCCCCCCCCCCCOP(=O)(O)O` in this test
Result: false (0)

Problem: What was the test verdict on `O=c1[nH]nc(-c2ccc([N+](=O)[O-])o2)o1` ?
Result: false (0)

Problem: Would you mind telling me which call this test gave `NNC(=O)c1cccc(C(=O)NN)c1` ?
Result: false (0)

Problem: Please let me know the test result on file for `Cc1c(C)c([N+](=O)[O-])c(C(C)(C)C)c([N+](=O)[O-])c1C` .
Result: false (0)

Problem: For `O=[N+]([O-])C1(Br)COCOC1` , what call appears in the results of this test?
Result: false (0)

Problem: Hello, I am checking results. What call was entered for CCCCC(CC)CCC(CC(C)C)OS(=O)(=O)O (stereo unspecified) ?
Result: false (0)

Problem: Could you kindly confirm the outcome this assay logged for `C[Si](C)(CCCN)O[Si](C)(C)CCCN` ?
Result: true (1)

Problem: Which outcome did this test record for the molecule `C/C=C\C/C=C/CCCCCCCCOC(C)=O` ?
Result: false (0)

Problem: // param item: `CC(=O)OCCC1CCCCC1` ; yields the recorded call
Result: false (0)

Problem: Assay outcome for `O=CC1CC1` : what was it?
Result: false (0)

Problem: Can you look up the reported call for `CN(C)c1ccc(C(=N)c2ccc(N(C)C)cc2)cc1` for me?
Result: false (0)

Problem: For this molecule, state the assay outcome: `FC(F)=C(F)OC(F)(F)C(F)(F)C(F)(F)F`
Result: false (0)

Problem: Called result for `Nc1ncn([C@@H]2O[C@H](CO)[C@@H](O)[C@H]2O)c(=O)n1`
Result: false (0)

Problem: Check the results log: what was the call for `O=C(C(Cl)Cl)N1CCOC12CCCCC2` ?
Result: false (0)

Problem: Outcome logged for `COc1ccc(NC(C)=O)cc1N` in this assay:
Result: false (0)

Problem: For `OCCNCc1ccccc1` , which call appears in the assay record?
Result: false (0)

Problem: Would you mind telling me which call this test gave `Nc1ccc(-c2ccc(F)cc2)cc1` ?
Result: false (0)

Problem: Please indicate how the test categorized `S=C(NC1CCCCC1)NC1CCCCC1` .
Result: false (0)

Problem: Which outcome was assigned to `CN(C)c1ccc(N=Nc2ccccc2C(=O)O)cc1` in this test?
Result: false (0)

Problem: // param item: `COc1cc(C)ccc1C(C)C` ; yields the recorded call
Result: false (0)

Problem: Could you check what this test reported for `CCN(CC#N)c1cccc(C)c1` ?
Result: false (0)

Problem: What classification did `CCCCCCCC(C)=O` end up with in this test?
Result: false (0)

Problem: Name the outcome recorded for `Nc1ccc(N)c(Cl)c1` in the assay.
Result: true (1)

Problem: Per the records of this test, what outcome belongs to `C1CN(SSN2CCOCC2)CCO1` ?
Result: false (0)

Problem: Just curious, what result did `COC(=O)/C=C\C(=O)O` get here?
Result: false (0)

Problem: Can you look up the reported call for `CN(C)CCCN(C)C` for me?
Result: false (0)

Problem: // return assay outcome for N[C@H]1C(O)O[C@H](CO)[C@H](O)[C@@H]1O (stereo partly specified)
Result: false (0)

Problem: What was the test verdict on `CCCCCCCCCCCCCCCC[N+](C)(C)CC` ?
Result: false (0)

Problem: Per the records of this test, what outcome belongs to `O=C1C=CC(=O)O1` ?
Result: false (0)

Problem: So what was the verdict on `N#CCc1ccc(Cl)cc1Cl` in this test?
Result: false (0)

Problem: Can you look up the reported call for `C=C(C)[C@@H]1CCC2=CCC[C@@H](C)[C@]2(C)C1` for me?
Result: false (0)

Problem: Would you mind telling me which call this test gave `O=C1c2ccccc2C(=O)C1c1nc2ccccc2c(Br)c1O` ?
Result: false (0)

Problem: GET /call?item= `CO[Si](OC)(OC)c1ccccc1` returns the recorded outcome of this test.
Result: false (0)

Problem: Write down the call the test reported for this molecule. Item: `C=C1[C@H]2CC[C@@H]3[C@H]2C(C)(C)CCC[C@]13C`
Result: false (0)

Problem: Entry `c1ccc(CNCc2ccccc2)cc1` : call = ?
Result: false (0)

Problem: I would be grateful if you could indicate the recorded call for C=CC(=O)OCCOC1C2CCC1C1CC=CC12 (stereo unspecified) .
Result: false (0)

Problem: Identify the outcome logged in this assay for the molecule shown: `NC(=O)c1ccccc1O`
Result: false (0)

Problem: What did this assay record as the result for `CC(C)(C)C(=O)CCc1ccc(Cl)cc1` ?
Result: false (0)

Cited source: PubChem BioAssay (EPA / NIEHS)
